Listing of entries alongside the reported EC50 of hC3 cleavage.
- Test target: plasma purified human complement protein C3 (human) (UniProt P01024)
- Sequence (P01024 23-667, chain 1 of 2): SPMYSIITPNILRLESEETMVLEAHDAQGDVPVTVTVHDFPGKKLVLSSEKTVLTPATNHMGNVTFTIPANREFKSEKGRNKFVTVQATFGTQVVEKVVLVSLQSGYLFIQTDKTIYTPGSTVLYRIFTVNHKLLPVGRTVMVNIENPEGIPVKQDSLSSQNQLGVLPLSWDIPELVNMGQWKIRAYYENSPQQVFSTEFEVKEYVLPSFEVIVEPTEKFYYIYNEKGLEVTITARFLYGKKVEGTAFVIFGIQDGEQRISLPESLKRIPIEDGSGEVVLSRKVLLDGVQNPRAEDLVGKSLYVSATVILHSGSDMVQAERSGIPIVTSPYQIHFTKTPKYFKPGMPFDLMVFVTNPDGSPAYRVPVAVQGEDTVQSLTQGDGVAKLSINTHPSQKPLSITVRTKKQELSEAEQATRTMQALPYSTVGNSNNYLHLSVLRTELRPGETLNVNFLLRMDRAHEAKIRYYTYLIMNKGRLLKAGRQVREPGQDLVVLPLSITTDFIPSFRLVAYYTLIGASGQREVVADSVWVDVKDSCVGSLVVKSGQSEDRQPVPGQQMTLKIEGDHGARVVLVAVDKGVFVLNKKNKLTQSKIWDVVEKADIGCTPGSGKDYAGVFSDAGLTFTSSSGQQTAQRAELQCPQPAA
- Sequence (P01024 672-1663, chain 2 of 2): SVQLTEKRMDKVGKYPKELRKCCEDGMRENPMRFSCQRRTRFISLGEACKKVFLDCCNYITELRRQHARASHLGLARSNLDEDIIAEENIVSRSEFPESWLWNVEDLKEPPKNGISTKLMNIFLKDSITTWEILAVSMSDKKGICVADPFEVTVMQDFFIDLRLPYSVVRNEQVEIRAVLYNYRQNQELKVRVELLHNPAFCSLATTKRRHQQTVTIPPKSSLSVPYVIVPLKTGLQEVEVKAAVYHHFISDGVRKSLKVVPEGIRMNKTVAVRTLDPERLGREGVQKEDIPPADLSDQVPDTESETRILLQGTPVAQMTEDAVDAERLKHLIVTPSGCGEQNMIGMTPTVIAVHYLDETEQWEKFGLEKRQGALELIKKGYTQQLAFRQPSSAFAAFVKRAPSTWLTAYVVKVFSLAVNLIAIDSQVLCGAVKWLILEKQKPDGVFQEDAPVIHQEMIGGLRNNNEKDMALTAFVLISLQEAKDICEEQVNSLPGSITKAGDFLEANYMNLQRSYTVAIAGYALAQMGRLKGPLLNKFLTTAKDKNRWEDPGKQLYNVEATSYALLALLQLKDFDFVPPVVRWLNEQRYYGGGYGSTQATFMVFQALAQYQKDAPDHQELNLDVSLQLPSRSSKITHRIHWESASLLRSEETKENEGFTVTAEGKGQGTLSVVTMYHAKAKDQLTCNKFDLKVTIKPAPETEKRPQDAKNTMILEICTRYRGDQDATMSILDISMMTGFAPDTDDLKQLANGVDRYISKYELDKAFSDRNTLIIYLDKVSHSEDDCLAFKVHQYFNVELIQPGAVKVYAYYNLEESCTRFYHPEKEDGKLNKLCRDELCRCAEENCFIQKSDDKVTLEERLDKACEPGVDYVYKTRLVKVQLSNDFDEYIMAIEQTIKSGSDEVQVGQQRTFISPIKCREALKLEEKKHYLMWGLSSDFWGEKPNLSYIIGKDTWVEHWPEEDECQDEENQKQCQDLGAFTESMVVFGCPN
- Experiment summary: cell-based or functional assay
The figure you give is taken to be in nM; do not add the unit.

Examples with answers:
# Binder, EC50 of hC3 cleavage [nM]
measured = [
    ("MTSP-1 Q38H/I41A/D60bV/F60eR/ins97aE/F97T/T98G/F99L/C122S/G151N/Q175L/Q192D (enzyme) VVGGTDADEGEWPWQVSLHALGHGHACGASLISPNWLVSAAHCYIDVRGRRYSDPTQWTAFLGLHDQSQRSAPGVQERRLKRIISHPFFNDTEGLDYDIALLELEKPAEYSSMVRPISLPDASHVFPAGKAIWVTGWGHTQYGGTNALILQKGEIRVINQTTCENLLPQLITPRMMCVGFLSGGVDSCDGDSGGPLSSVEADGRIFQAGVVSWGDGCAQRNKPGVYTRLPLFRDWIKENTGV", 6.06),
    ("MTSP-1 F97N/ins97aT/T98Y/F99N/C122S (enzyme) VVGGTDADEGEWPWQVSLHALGQGHICGASLISPNWLVSAAHCYIDDRGFRYSDPTQWTAFLGLHDQSQRSAPGVQERRLKRIISHPFFNDNTYNDYDIALLELEKPAEYSSMVRPISLPDASHVFPAGKAIWVTGWGHTQYGGTGALILQKGEIRVINQTTCENLLPQQITPRMMCVGFLSGGVDSCQGDSGGPLSSVEADGRIFQAGVVSWGDGCAQRNKPGVYTRLPLFRDWIKENTGV", 184),
]

Determine from records and report EC50 of hC3 cleavage for MTSP-1 C122S/G193E (enzyme) VVGGTDADEGEWPWQVSLHALGQGHICGASLISPNWLVSAAHCYIDDRGFRYSDPTQWTAFLGLHDQSQRSAPGVQERRLKRIISHPFFNDFTFDYDIALLELEKPAEYSSMVRPISLPDASHVFPAGKAIWVTGWGHTQYGGTGALILQKGEIRVINQTTCENLLPQQITPRMMCVGFLSGGVDSCQEDSGGPLSSVEADGRIFQAGVVSWGDGCAQRNKPGVYTRLPLFRDWIKENTGV 119

Hello, the source for this data is patent US20240018502A1, in case you need it.
